- System: T-Rex 293 cell line SC3 cells lacking increased expression of androgen receptor protein
- test.summary: Cellular growth inhibition assay, T-Rex 293 SC3 cells without doxycycline (CellTiter-Glo, 72 hours)
- Assay type: cell-based
- experimental.context: 72 h, T-Rex 293 cell line SC3 cells not exposed to doxycycline (lacking increased androgen receptor expression)

molecule	GI50
Cc1sc2c(c1C)C(c1ccc(OC3CC4(CCN(c5ccc(C(=O)N[C@H]6CC[C@H](Oc7ccc(C#N)c(Cl)c7)CC6)cc5)CC4)C3)cc1)=N[C@@H](Cc1ncco1)c1nnc(C)n1-2	< 500 nM
Cc1sc2c(c1C)C(c1ccc(N3CCC4(CC3)CCN(c3ccc(C(=O)N[C@H]5CC[C@H](Oc6ccc(C#N)c(Cl)c6)CC5)nn3)CC4)cc1)=N[C@@H](C)c1nnc(C)n1-2	< 500 nM
Cc1sc2c(c1C)C(c1ccc(NCCC3CCCN(c4ncc(C(=O)N[C@H]5CC[C@H](Oc6ccc(C#N)c(Cl)c6)CC5)cn4)C3)cc1)=NC(Cc1ncco1)c1nnc(C)n1-2 (some centres unmarked)	< 500 nM
Cc1sc2c(c1C)C(c1ccc(C3CCC4(CCN(c5ccc(C(=O)N[C@H]6CC[C@H](Oc7ccc(C#N)c(Cl)c7)CC6)nn5)CC4)C3)nc1)=N[C@@H](C)c1nnc(C)n1-2 (some centres unmarked)	< 500 nM
Cc1sc2c(c1C)C(c1ccc(C[C@H]3C[C@]4(CCCN(c5ccc(C(=O)N[C@H]6CC[C@H](Oc7ccc(C#N)c(Cl)c7)CC6)nn5)C4)C3)cc1)=N[C@@H](C)c1nnc(C)n1-2	> 3000 nM
COC[C@@H]1N=C(c2ccc(C3CCC4(CCN(c5ccc(C(=O)N[C@H]6CC[C@H](Oc7ccc(C#N)c(Cl)c7)CC6)nn5)CC4)C3)cc2)c2c(sc(C)c2C)-n2c(C)nnc21 (some centres unmarked)	< 500 nM
Cc1sc2c(c1C)C(c1cccc(N3CC4(CCN(c5ccc(C(=O)N[C@H]6CC[C@H](Oc7ccc(C#N)c(Cl)c7)CC6)nn5)CC4)C3)c1)=N[C@@H](C)c1nnc(C)n1-2	> 3000 nM
Cc1sc2c(c1C)C(c1ccc(CCC3CCN(c4ccc(C(=O)NC5CCC(Oc6ccc(C#N)c(Cl)c6)CC5)nn4)CC3)cc1)=N[C@@H](Cc1ncco1)c1nnc(C)n1-2 (some centres unmarked)	< 500 nM
Cc1sc2c(c1C)C(c1ccc(N3CCC4(CCN(c5ccc(C(=O)N[C@H]6CC[C@H](Oc7ccc(C#N)c(Cl)c7)CC6)nn5)C4)C3)cc1F)=N[C@@H](C)c1nnc(C)n1-2 (some centres unmarked)	< 500 nM
Cc1sc2c(c1C)C(c1ccc(OC3CC4(C3)CC3(CCN(c5ccc(C(=O)N[C@H]6CC[C@H](Oc7ccc(C#N)c(Cl)c7)CC6)nn5)CC3)C4)cc1)=NC1(CC1)c1nnc(C)n1-2	> 3000 nM
Cc1sc2c(c1C)C(c1ccc(C[C@H]3CC[C@]4(CCCN(c5ccc(C(=O)N[C@H]6CC[C@H](Oc7ccc(C#N)c(Cl)c7)CC6)nn5)C4)C3)cc1)=N[C@@H](Cc1ncco1)c1nnc(C)n1-2	< 500 nM
Cc1sc2c(c1C)C(c1ccc(C3CCC4(CCN(c5ccc(C(=O)N[C@H]6CC[C@H](Oc7ccc(C#N)c(Cl)c7)CC6)nn5)CC4)C3)cn1)=NC1(CC1)c1nnc(C)n1-2 (some centres unmarked)	> 3000 nM
CCNC(=O)C[C@@H]1N=C(c2ccc(CCCCCCOC3CCN(c4ccc(C(=O)N[C@H]5CC[C@H](Oc6ccc(C#N)c(Cl)c6)CC5)nn4)CC3)cc2)c2c(sc(C)c2C)-n2c(C)nnc21	500 to 1500 nM
Cc1sc2c(c1C)C(c1ccc(Cl)cc1)=N[C@@H](CC(=O)NCCOC1CCN(c3ccc(C(=O)N[C@H]4CC[C@H](Oc5ccc(C#N)c(Cl)c5)CC4)nn3)CC1)c1nnc(C)n1-2	500 to 1500 nM
Cc1sc2c(c1C)C(c1cccc(N3CCC4(CCCN(c5ccc(C(=O)N[C@H]6CC[C@H](Oc7ccc(C#N)c(Cl)c7)CC6)nn5)C4)CC3)c1)=N[C@@H](C)c1nnc(C)n1-2	> 3000 nM
Cc1sc2c(c1C)C(c1ccc(N3CCC[C@H](C(=O)N4CCC[C@@H](c5ccc(C(=O)N[C@H]6CC[C@H](Oc7ccc(C#N)c(Cl)c7)CC6)nn5)C4)C3)cc1)=N[C@@H](Cc1ncco1)c1nnc(C)n1-2	< 500 nM
Cc1sc2c(c1C)C(c1ccc(N3CCC(CC4CCN(c5ccc(C(=O)N[C@H]6CC[C@H](Oc7ccc(C#N)c(Cl)c7)CC6)nn5)CC4)CC3)cc1)=NC1(CC1)c1nnc(C)n1-2	> 3000 nM
Cc1sc2c(c1C)C(c1ccc(C#CC3CC4(C3)CN(c3ccc(C(=O)N[C@H]5CC[C@H](Oc6ccc(C#N)c(Cl)c6)CC5)nn3)C4)cn1)=NC(C)c1nnc(C)n1-2 (some centres unmarked)	> 3000 nM
Cc1sc2c(c1C)C(c1ccc(OC3CC4(CCN(c5ccc(C(=O)N[C@H]6CC[C@H](Oc7ccc(C#N)c(Cl)c7)CC6)nn5)CC4)C3)cc1)=NC(Cc1ncco1)c1nnc(C)n1-2 (some centres unmarked)	500 to 1500 nM
COC[C@@H]1N=C(c2ccc(OC3CC4(CCCN(c5ccc(C(=O)N[C@H]6CC[C@H](Oc7ccc(C#N)c(Cl)c7)CC6)nn5)C4)C3)cc2)c2c(sc(C)c2C)-n2c(C)nnc21 (some centres unmarked)	< 500 nM
